The reported measurements were obtained from PubChem BioAssay AID1224856.

# Procedure Details: Cell viability assay for measurement of the protective activity of small molecules against cell death caused by Zika virus infection in human astrocytes
# Measurement Setup: human astrocytes ZIKV-induced death, ATP luminescence, 72 h; series mostly up to 46.1 µM
Records with an inconclusive call do not appear. Calls of active or inactive are those of the source. The call rests on the fitted dose curve; in most records, active means well fitted curve in the direction sought with a large enough effect; inconclusive means small, poorly fitted or top-dose-only effect, or another doubt; inactive means no such curve, though single readings can be large or run the other way.
Outcomes: active, inactive

• Cc1cc(O)c2ccccc2c1O = inactive
• CCCS(=O)c1ccc2nc(NC(=O)OC)[nH]c2c1 (stereo not drawn) = inactive
• NC(=O)c1cccc2[nH]c(-c3ccc([C@H]4CCCN4)cc3F)nc12 = inactive
• NC1CCC(Nc2nc(Nc3ccc(C(=O)N4CCCCC4)cc3)c3ncn(-c4cccc(F)c4)c3n2)CC1 (stereo not drawn) = inactive
• CC(C)[N+](C)(CCC(C(N)=O)(c1ccccc1)c1ccccc1)C(C)C = inactive
• O=C(/C=C/c1ccccc1)NCCO = inactive
• O=C(c1ccccc1)c1ccc2n1CCC2C(=O)O (stereo not drawn) = inactive
• Nc1ncnc2c1ncn2[C@@H]1O[C@@H](CO)[C@H](O)[C@H]1O = inactive
• Cc1c(C(=O)O)c(O)cc2c1C(=O)c1c(O)c([C@@H]3O[C@H](CO)[C@@H](O)[C@H](O)[C@H]3O)c(O)c(O)c1C2=O = inactive
• O=C1NC(=O)C(=Cc2ccc(-c3ccc(F)cc3)o2)S1 = inactive
• Oc1ccc(/C=C/c2cc(O)cc(O)c2)cc1 = inactive
• CN1CC(=O)N/C1=N/C(=O)Nc1cccc(Cl)c1 = inactive
• S=C(SSC(=S)N1CCCCC1)N1CCCCC1 = active
• O=S(=O)(O)c1ccc2nc(-c3ccccc3)[nH]c2c1 = inactive
• O=c1c2ccccc2[se]n1-c1ccccc1 = inactive
• CO[C@H]1C(=O)[C@]2(C)[C@@H](OC)C[C@H]3OC[C@@]3(OC(C)=O)[C@H]2[C@H](OC(=O)c2ccccc2)[C@]2(O)C[C@H](OC(=O)[C@H](O)[C@@H](NC(=O)OC(C)(C)C)c3ccccc3)C(C)=C1C2(C)C = inactive
• Nc1ccc2c(c1)CN1C(=O)c3ccccc3C1=N2 = inactive
• O=C1C=CC[C@@H]2[C@H]3CCCN4CCC[C@@H](CN12)[C@@H]34 = inactive
• O=c1oc2cc(O)ccc2s1 = inactive
• O=C(Nc1cc2cc[nH]c2cn1)c1ccccc1 = inactive
• C[C@@H](N)c1ccc(C(=O)Nc2ccnc3[nH]ccc23)cc1 = inactive
• Cc1ccc(O)c(-n2nc3ccccc3n2)c1 = inactive
• O=c1[nH]nc(Sc2ncc([N+](=O)[O-])s2)n1-c1ccc2c(c1)OCCO2 = inactive
• O=C(O)c1ccccc1NCCc1ccccc1 = inactive
• O=c1cc(-c2ccccc2)oc2cc(O)c(O)c(O)c12 = inactive
• CC(O)CN1CCN(CC(=O)[O-])CCN(CC(=O)[O-])CCN(CC(=O)[O-])CC1.[Gd+3] (stereo not drawn) = inactive
• CC(C)N[C@@H]1CCn2c(=O)[nH]c3cccc(c32)[C@@H]1O = inactive
• COc1cccc(-c2ccc(NC(=O)C3=C(C(=O)O)CCC3)c(F)c2)c1 = inactive
• N#CC1(c2ccc(NC(=O)c3cccnc3NCc3ccncc3)cc2)CCCC1 = inactive
• COc1ccc2nc(NC(=O)Nc3ccccc3)sc2c1 = inactive
• CC1=C(CO)C(=O)O[C@@H]([C@@H](C)[C@H]2CC[C@H]3[C@@H]4C[C@H]5O[C@]56[C@@H](O)C=CC(=O)[C@]6(C)[C@@H]4CC[C@]23C)C1 = inactive
• [O-][n+]1ccccc1SSc1cccc[n+]1[O-] = inactive
• COCCn1c2c([n+](Cc3cnccn3)c1C)C(=O)c1ccccc1C2=O = inactive
• O=C1C(Cl)=C(NCCN2CCOCC2)C(=O)c2ncccc21 = inactive
• CC(C)[C@H]1C(=O)N[C@H](CO)Cc2c[nH]c3cccc(c23)N1C = active
• COc1cccc(-c2cc(=O)c3ccccc3o2)c1N = inactive
• Cc1nc(N)sc1-c1ccnc(Nc2ccc(N3CCOCC3)cc2)n1 = inactive
• COc1cccc2c1C(=O)c1c(O)c3c(c(O)c1C2=O)C[C@@](O)(C(=O)CO)C[C@@H]3O[C@H]1C[C@H](N)[C@H](O[C@@H]2CCCCO2)[C@H](C)O1 = inactive
• O=C(O)[C@@H](c1ccc(OCc2ccc3ccccc3n2)cc1)C1CCCC1 = inactive
• CCCCCCCC/C=C/C(=O)O = inactive
• c1ccc2[nH]c(-c3cscn3)nc2c1 = inactive
• CC1(C)OC2=C(C(=O)c3ccccc3C2=O)[C@H](NCc2ccccc2)[C@H]1O = inactive
• CCCCCCOc1ccccc1C(N)=O = inactive
